# methodSummary: E. coli growth modulation, two-sided OD650, primary screen, E. coli filamentation project, strain DRC41, 24 h (AID 1093);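 further: MC1000 strain lacking acrAB efflux and sulA so SOS filamentation is blocked; test concentration not given here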
# conditionParameters: OD650, 24 h, higher = more signal, called active from +8 up or from −8 down
Binned z-score; ranges: low bin = under -0.2, mid bin = from -0.2 up to 0.9, high bin = 0.9 and over

molecule	discreteLabel
[N-]=[N+]=NCc1ccccc1[C@H]1OC(c2ccc(OCCCO)cc2)=N[C@@]1(CCS(=O)(=O)c1ccccc1)C(=O)NCc1ccccc1	high bin
COCCCNC(=O)[C@@H]1c2ccccc2C(=O)N(C2Cc3ccccc3C2)[C@H]1c1ccc(CO)cc1	high bin
COCCOC(=O)N1C(=O)[C@@]2(c3ccccc31)[C@H](c1ccccc1OCCO)N1[C@H](c3ccccc3)[C@H](c3ccccc3)OC(=O)[C@H]1[C@@H]2C(=O)N1CCCCCCC1	low bin
COc1cc(NN2C(C(O)c3ccc(I)cc3)C=CC3C(=O)N(c4ccccc4)C(=O)C32)cc(OC)c1OC (centres undefined)	low bin
C=C(CCCC)/C(=C/C[C@H](OC(C)=O)c1ccc(OCCO)cc1)c1cc(C(=O)OC)ccc1OC	mid bin
C=CCC(OC(C)=O)[C@@H]1[C@@H](N(Cc2ccc(-c3cccc(C(F)(F)F)c3)o2)C(=O)c2ccc(C)cc2)c2cc(OCCCO)ccc2N1C(=O)Cc1ccc(OC)cc1 (some centres undefined)	high bin
COC(=O)C1=CC(CCCO)=CC(c2ccc(CN3CCCC3)cc2)N(Cc2cc3c(cc2Br)OCO3)C=C1C(=O)OC (centres undefined)	low bin
COCCOC(=O)N1C(=O)[C@@]2(c3cc(C#CCNC(N)=O)ccc31)[C@H](c1ccc(OCCO)cc1)N1[C@H](c3ccccc3)[C@H](c3ccccc3)OC(=O)[C@H]1[C@@H]2C(N)=O	high bin

Exercise: Which category does the recorded z-score put CN(C)CCCNC(=O)[C@@H]1c2ccccc2C(=O)N(C2CCCCC2)[C@H]1c1ccc(CO)cc1 in?
Key: mid bin

Exercise: Which category does the recorded z-score put O=C(O)[C@H]1C[C@H]2C(=O)N[C@@H](Cc3ccccc3)C(=O)N2[C@H]1c1cccc(OCCO)c1 in?
Key: mid bin

Exercise: Which category does the recorded z-score put COCCOC(=O)N1C(=O)[C@@]2(c3cc(C#Cc4ccc(OC)cc4)ccc31)[C@H](C(=O)NC[C@H](O)c1ccccc1)[C@H]1C(=O)O[C@H](c3ccccc3)[C@H](c3ccccc3)N1[C@@H]2c1ccc(OCCO)cc1 in?
Key: high bin

Exercise: Which category does the recorded z-score put [N-]=[N+]=NCc1ccccc1[C@@H]1OC(c2ccc(OCCCO)cc2)=N[C@]1(Cc1ccccc1N=[N+]=[N-])C(=O)N1CCCCC1 in?
Key: mid bin

Exercise: Which category does the recorded z-score put CCCCCCCCCCC(O)C1C=CC2C(=O)N(c3ccccc3)C(=O)C2N1Nc1ccccc1F (centres undefined) in?
Key: low bin

Exercise: Which category does the recorded z-score put CO[C@H]1O[C@H](CO)[C@@H](OC(=O)Nc2cccc(F)c2)[C@H](OC(=O)Nc2ccccc2-c2ccccc2)[C@H]1OC(=O)Nc1ccccc1-c1ccccc1 in?
Key: mid bin

---

# assayedTarget: Neurogenic locus notch homolog protein 3 (Homo sapiens)
# methodSummary: NOTCH3 binders on small-molecule microarray, primary screen, biochemical, 635/667 nm fluorescence (AID 1096)
# conditionParameters: NOTCH3 binding, 635 nm fluorescence, higher = more signal
compounds and their reported composite z-score
Please give the numeric answer without any surrounding text.

For orientation, consider the following solved cases.
compound	assayedTarget	composite z-score
O=C1O[C@H](c2ccccc2)[C@H](c2ccccc2)N2[C@H]1[C@@H](C(=O)N1CCCCCCC1)[C@]1(C(=O)Nc3ccc(C#CC4(O)CCCCCC4)cc31)[C@H]2c1ccccc1OCCO	Neurogenic locus notch homolog protein 3 (Homo sapiens)	1.03
COC(=O)C1N=C(c2ccc(OCCCO)cc2)N(c2ccccc2)O1 (configuration not stated)	Neurogenic locus notch homolog protein 3 (Homo sapiens)	0.698
CCCCC(=C=CC[C@H](O)c1ccc(OCCO)cc1)C[C@H](O)COCc1ccccc1	Neurogenic locus notch homolog protein 3 (Homo sapiens)	-0.36
CCOC(=O)C1=C[C@@H](c2ccccc2)N(S(=O)(=O)c2ccc(C)cc2)[C@H]1c1ccccc1	Neurogenic locus notch homolog protein 3 (Homo sapiens)	0.552
CC(C)c1ccc(NN2C(C(O)Cc3ccccc3)C=CC3C(=O)N(c4ccccc4)C(=O)C32)cc1 (configuration not stated)	Neurogenic locus notch homolog protein 3 (Homo sapiens)	1.07

Observed composite z-score, Neurogenic locus notch homolog protein 3 (Homo sapiens), CO[C@H]1O[C@H](CO)[C@@H](OC(=O)c2ccc(Br)cc2)[C@@H]2OC(=O)[C@H](Cc3ccccc3)C/C=C/C[C@@H](Cc3ccccc3)C(=O)O[C@@H]12 : 0.181

Observed composite z-score, Neurogenic locus notch homolog protein 3 (Homo sapiens), COCCCNC(=O)[C@@]1(Sc2ccc(C)cc2)CC(=O)N(Cc2ccccc2Cl)[C@@H]1c1ccc(CO)cc1I : -0.318
